Biological target: CYP2C19 (Homo sapiens)
Sequence (P33261 whole entry): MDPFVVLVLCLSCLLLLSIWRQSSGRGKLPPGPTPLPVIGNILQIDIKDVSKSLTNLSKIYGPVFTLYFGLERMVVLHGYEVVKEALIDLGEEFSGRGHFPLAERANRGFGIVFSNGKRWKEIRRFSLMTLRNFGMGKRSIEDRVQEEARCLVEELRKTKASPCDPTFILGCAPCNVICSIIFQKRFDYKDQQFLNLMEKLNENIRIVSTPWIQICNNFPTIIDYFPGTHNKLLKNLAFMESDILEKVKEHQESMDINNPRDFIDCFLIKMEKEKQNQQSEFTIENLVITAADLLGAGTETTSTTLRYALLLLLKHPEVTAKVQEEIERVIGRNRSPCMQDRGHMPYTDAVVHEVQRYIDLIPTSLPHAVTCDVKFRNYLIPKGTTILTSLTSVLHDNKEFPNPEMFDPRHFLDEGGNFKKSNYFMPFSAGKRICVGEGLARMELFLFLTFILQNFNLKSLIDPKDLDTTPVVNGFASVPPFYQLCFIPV
Test: Inhibition of CYP2C19 in human liver microsomes at 10 uM using mephenytoin as substrate preincubated for 5 mins followed by NADPH addition and measured after 20 mins by LC-MS/MS analysis relative to control
Conditions: probe mephenytoin
recorded.metric: inhibition at 20 min, 10 µM (%)
Give a bare numeral; the unit % is implied.

Data request: Bench note: what inhibition at 20 min, 10 µM did CCNc1nc(OCCOC)nc2c1CN(C(=O)c1cc(C(C)C)c(O)cc1O)CC2 show?
Data returned: 21

====

Catalogue of Ratio IC50 values
Assay: Selectivity ratio of IC50 for inhibition of FITC-geldanamycin binding to N-terminal GRP94 (unknown origin) to IC50 for inhibition of FITC-geldanamycin binding to N-terminal HSP90alpha (unknown origin)
Just the number, please, no unit attached.

Data request: Bench note: what Ratio IC50 did CCCOc1ncc2c(n1)CCN(C(=O)c1cc(C(C)C)c(O)cc1O)C2 show?
Data returned: 8.3

Data request: Bench note: what Ratio IC50 did CC(C)COc1ncc2c(n1)CCN(C(=O)c1cc(C(C)C)c(O)cc1O)C2 show?
Data returned: 10.9

Data request: Bench note: what Ratio IC50 did CC(C)c1cc(C(=O)N2Cc3ccc(CN4CCN(C)CC4)cc3C2)c(O)cc1O [ONALESPIB] show?
Data returned: 1.7

====

Catalogue of bioavailability values
Assay: Oral bioavailability in rat at 50 mg/kg measured upto 24 hrs by LC-MS/MS analysis
Assay type: ADME, organism-based
Conditions: in vivo
Give a bare numeral; the unit % is implied.

{"smiles.structure": "CCNc1nc(OCCOC)nc2c1CN(C(=O)c1cc(C(C)C)c(O)cc1O)CC2", "recorded.metric": "bioavailability", "reported": 4.23}

Switching to the query record.
Data request: Bench note: what bioavailability did COCCOc1ncc2c(n1)CCN(C(=O)c1cc(C(C)C)c(O)cc1O)C2 show?
Data returned: 7

====

Hi! I'm sharing some pIC50 results obtained with Endoplasmin (Homo sapiens, UniProt P14625).
Sequence (P14625 whole entry): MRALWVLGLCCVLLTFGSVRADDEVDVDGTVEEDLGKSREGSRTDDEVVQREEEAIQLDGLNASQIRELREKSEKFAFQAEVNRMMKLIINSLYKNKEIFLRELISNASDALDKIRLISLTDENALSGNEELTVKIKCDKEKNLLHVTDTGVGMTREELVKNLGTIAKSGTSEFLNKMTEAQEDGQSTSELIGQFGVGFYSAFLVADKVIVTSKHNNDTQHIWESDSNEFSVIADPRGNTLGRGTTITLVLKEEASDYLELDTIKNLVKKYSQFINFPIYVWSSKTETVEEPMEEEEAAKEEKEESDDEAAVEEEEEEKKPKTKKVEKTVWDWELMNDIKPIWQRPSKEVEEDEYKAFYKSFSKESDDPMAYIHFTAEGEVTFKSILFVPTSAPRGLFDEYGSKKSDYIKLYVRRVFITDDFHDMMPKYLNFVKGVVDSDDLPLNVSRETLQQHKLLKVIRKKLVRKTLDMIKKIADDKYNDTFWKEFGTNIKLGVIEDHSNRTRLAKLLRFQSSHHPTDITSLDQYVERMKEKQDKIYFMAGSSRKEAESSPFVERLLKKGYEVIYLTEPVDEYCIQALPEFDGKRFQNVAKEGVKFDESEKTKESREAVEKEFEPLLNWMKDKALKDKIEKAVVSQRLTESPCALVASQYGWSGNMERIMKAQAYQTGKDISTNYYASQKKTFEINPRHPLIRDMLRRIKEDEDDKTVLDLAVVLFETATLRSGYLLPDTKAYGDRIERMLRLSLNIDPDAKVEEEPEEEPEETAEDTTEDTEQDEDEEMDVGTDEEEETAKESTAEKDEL
// returns pIC50 (minus log10 of molar concentration), number only

Answered examples (9):
{"smiles.structure": "CC(C)c1cc(C(=O)N2CCc3nc(OCCN(C)C)ncc3C2)c(O)cc1O", "recorded.metric": "pIC50", "reported": 6.54}
{"smiles.structure": "COCCOc1nc2c(c(OC)n1)CN(C(=O)c1cc(C(C)C)c(O)cc1O)CC2", "recorded.metric": "pIC50", "reported": 6.63}
{"smiles.structure": "COCCOc1nc2c(c(OC(C)C)n1)CN(C(=O)c1cc(C(C)C)c(O)cc1O)CC2", "recorded.metric": "pIC50", "reported": 5.88}
{"smiles.structure": "CCCCOc1ncc2c(n1)CCN(C(=O)c1cc(C(C)C)c(O)cc1O)C2", "recorded.metric": "pIC50", "reported": 6.17}
{"smiles.structure": "CCCNc1nc(OCCOC)nc2c1CN(C(=O)c1cc(C(C)C)c(O)cc1O)CC2", "recorded.metric": "pIC50", "reported": 6.10}
{"smiles.structure": "COCCOc1nc2c(c(NC3CC3)n1)CN(C(=O)c1cc(C(C)C)c(O)cc1O)CC2", "recorded.metric": "pIC50", "reported": 6.67}
{"smiles.structure": "COCCOc1ncc2c(n1)CCN(C(=O)c1cc(C(C)C)c(O)cc1O)C2", "recorded.metric": "pIC50", "reported": 6.70}
{"smiles.structure": "CCCOc1nc(OCCOC)nc2c1CN(C(=O)c1cc(C(C)C)c(O)cc1O)CC2", "recorded.metric": "pIC50", "reported": 6.03}
{"smiles.structure": "COCCOc1nc2c(c(NC(C)C)n1)CN(C(=O)c1cc(C(C)C)c(O)cc1O)CC2", "recorded.metric": "pIC50", "reported": 6.10}

Data request: Provide the documented pIC50 with Endoplasmin (Homo sapiens, UniProt P14625) as the system for CC(C)Oc1ncc2c(n1)CCN(C(=O)c1cc(C(C)C)c(O)cc1O)C2
Data returned: 6.29
